# Test system: HEK293 cells
# EXPERIMENTAL_DETAILS: HEK293 cytotoxicity, CellTiter-Glo, 48 h
# MEASUREMENT_CONDITIONS: growth inhibition at 10 µM; ± SD
Listed molecules paired with reported HEK293 inhibition (%)
The answer is to be given in %; state only the numeric part.

smiles_string=C/C(=N\Nc1nc(C)c[se]1)C12CC3CC(CC(C3)C1)C2 quantity_unit=% observed=64
smiles_string=C/C(=N\NC(N)=[Se])C12CC3CC(CC(C3)C1)C2 quantity_unit=% observed=100
smiles_string=COc1ccc(C(C)=NNc2nc(C)cs2)cc1.Cl quantity_unit=% observed=33

Continue with the next molecule.
Recorded HEK293 inhibition (%) (molecule C/C(=N\Nc1nc(C)cs1)C12CC3CC(CC(C3)C1)C2.Cl ): 39
